- test: Solubility in hexane at 1.5 mg sonicated for 45 mins followed by centrifugation for 45 mins by UV/Vis spectroscopy
- Type: physicochemical
- conditionContext: 0.75 h
resultType: solubility

> print(dat)
                                        smi  resulttype  measuredresult
1  CSSCCC(=O)Nc1ccc2[nH]c(C(=O)Nc3ccc4[nH]c(C(=O)N5C[C@@H](CCl)c6c5cc(OP(=O)(O)O)c5ccccc65)cc4c3)cc2c1  solubility       Insoluble
2  O=C(CCS)Nc1ccc2[nH]c(C(=O)Nc3ccc4[nH]c(C(=O)N5C[C@@H](CCl)c6c5cc(OP(=O)(O)O)c5ccccc65)cc4c3)cc2c1  solubility       Insoluble
3  CC(C)(S)CCC(=O)Nc1ccc2[nH]c(C(=O)Nc3ccc4[nH]c(C(=O)N5C[C@@H](CCl)c6c5cc(OP(=O)(O)O)c5ccccc65)cc4c3)cc2c1  solubility       Insoluble

----------
- test: Solubility in dichloromethane at 1.5 mg sonicated for 45 mins followed by centrifugation for 45 mins by UV/Vis spectroscopy
- Format: physicochemical
- conditionContext: 0.75 h
resultType: solubility

Examples from the recorded data:
> print(dat)
                                        smi  measuredresult
1  O=C(CCS)Nc1ccc2[nH]c(C(=O)Nc3ccc4[nH]c(C(=O)N5C[C@@H](CCl)c6c5cc(OP(=O)(O)O)c5ccccc65)cc4c3)cc2c1       Insoluble
2  CSSCCC(=O)Nc1ccc2[nH]c(C(=O)Nc3ccc4[nH]c(C(=O)N5C[C@@H](CCl)c6c5cc(O)c5ccccc65)cc4c3)cc2c1       Insoluble
3  CSSC(C)(C)CCC(=O)Nc1ccc2[nH]c(C(=O)Nc3ccc4[nH]c(C(=O)N5C[C@@H](CCl)c6c5cc(O)c5ccccc65)cc4c3)cc2c1       Insoluble
4  CSSCCC(=O)Nc1ccc2[nH]c(C(=O)Nc3ccc4[nH]c(C(=O)N5C[C@@H](CCl)c6c5cc(OP(=O)(O)O)c5ccccc65)cc4c3)cc2c1       Insoluble

Form: compound = O=C(CCSSc1ccccn1)Nc1ccc2[nH]c(C(=O)Nc3ccc4[nH]c(C(=O)N5C[C@@H](CCl)c6c5cc(O)c5ccccc65)cc4c3)cc2c1 ; solubility = Insoluble

----------
- test: Solubility in water at 1.5 mg sonicated for 45 mins followed by centrifugation for 45 mins by UV/Vis spectroscopy
- Type: physicochemical
- conditionContext: 0.75 h
resultType: solubility

> print(dat)
                                        smi  measuredresult
1  CSSC(C)(C)CCC(=O)Nc1ccc2[nH]c(C(=O)Nc3ccc4[nH]c(C(=O)N5C[C@@H](CCl)c6c5cc(O)c5ccccc65)cc4c3)cc2c1       Insoluble
2  CSSCCC(=O)Nc1ccc2[nH]c(C(=O)Nc3ccc4[nH]c(C(=O)N5C[C@@H](CCl)c6c5cc(O)c5ccccc65)cc4c3)cc2c1       Insoluble
3  O=C(CCS)Nc1ccc2[nH]c(C(=O)Nc3ccc4[nH]c(C(=O)N5C[C@@H](CCl)c6c5cc(OP(=O)(O)O)c5ccccc65)cc4c3)cc2c1       Insoluble

----------
- test: Solubility of the compound in 100% buffer at pH 7 at 1.5 mg sonicated for 45 mins followed by centrifugation for 45 mins by UV/Vis spectroscopy
- Format: physicochemical
solubility at 0.75 h listing for selected compounds.

> print(dat)
                                        smi  measuredresult
1  CSSCCC(=O)Nc1ccc2[nH]c(C(=O)Nc3ccc4[nH]c(C(=O)N5C[C@@H](CCl)c6c5cc(O)c5ccccc65)cc4c3)cc2c1        < 0.1 µM
2  CSSC(C)(C)CCC(=O)Nc1ccc2[nH]c(C(=O)Nc3ccc4[nH]c(C(=O)N5C[C@@H](CCl)c6c5cc(OP(=O)(O)O)c5ccccc65)cc4c3)cc2c1           19 µM
3  CSSC(C)(C)CCC(=O)Nc1ccc2[nH]c(C(=O)Nc3ccc4[nH]c(C(=O)N5C[C@@H](CCl)c6c5cc(O)c5ccccc65)cc4c3)cc2c1        < 0.1 µM

Quick note, solubility at 0.75 h for CSSCCC(=O)Nc1ccc2[nH]c(C(=O)Nc3ccc4[nH]c(C(=O)N5C[C@@H](CCl)c6c5cc(OP(=O)(O)O)c5ccccc65)cc4c3)cc2c1 landed at 19 µM
